- assay_remarks: Clearance in Sprague-Dawley rat at 50 mg/kg, iv pretreated with Escherichia coli lipopolysaccharide (Rvb=32.4+/- 5.25 ml/min/kg)
- Assay type: ADME, organism-based
- Design: dose 50 mg/kg, route intravenous
- assay_context: in vivo
measured_quantity: clearance (mL/min/kg)

INSERT INTO assay_data (smiles_repr, units_of_measure, val) VALUES
  ('CC[C@H]1OC(=O)[C@H](C)C(=O)[C@H](C)[C@@H](O[C@@H]2O[C@H](C)C[C@H](N(C)C)[C@H]2O)[C@](C)(OC)C[C@@H](C)C(=O)[C@H](C)[C@H]2N(CCCCn3cnc(-c4cccnc4)c3)C(=O)O[C@]12C', 'mL/min/kg', 19.4);

* * *

- assay_remarks: Drug excretion in Sprague-Dawley rat urine assessed as unchanged drug at 50 mg/kg, iv after 24 hrs pretreated with Escherichia coli lipopolysaccharide (Rvb=16.5 +/- 2.32 %)
- Assay type: ADME, organism-based
- Parameters: dose 50 mg/kg, route intravenous
- assay_context: read-out: Drug uptake
measured_quantity: dose excreted at 24 h (%)

INSERT INTO results (smiles_repr, units_of_measure, val) VALUES
  ('CC[C@H]1OC(=O)[C@H](C)C(=O)[C@H](C)[C@@H](O[C@@H]2O[C@H](C)C[C@H](N(C)C)[C@H]2O)[C@](C)(OC)C[C@@H](C)C(=O)[C@H](C)[C@H]2N(CCCCn3cnc(-c4cccnc4)c3)C(=O)O[C@]12C', '%', 23.8);
